Exercise: for every item that follows, state its recorded growth at 10 µM.
- System: 786-0
- assay procedure: Cytotoxicity against Homo sapiens (human) 786-0 assessed as cell growth at 10 uM after 48 hr by SRB assay relative to control
- Type: functional
- experimental context: 786-0, 48 h, read-out: Activity
I only need the number, in %, no unit after it.

### Prompt # lookup: 786-0 growth at 10 µM, key = Oc1c(-c2n[nH]c(=S)o2)sc2nnc(-c3ccccc3)c(-c3ccccc3)c12
### Response 108

### Prompt # lookup: 786-0 growth at 10 µM, key = Oc1c(-c2nnc(SCc3ccccc3)o2)sc2nnc(-c3ccccc3)c(-c3ccccc3)c12
### Response 105

### Prompt # lookup: 786-0 growth at 10 µM, key = CC(=O)Oc1c(C2=NN(C(C)=O)C(c3ccc(F)cc3)O2)sc2nnc(-c3ccccc3)c(-c3ccccc3)c12 (stereo not given)
### Response 94.7

### Prompt # lookup: 786-0 growth at 10 µM, key = CSc1nnc(-c2sc3nnc(-c4ccccc4)c(-c4ccccc4)c3c2O)o1
### Response 88.7

### Prompt # lookup: 786-0 growth at 10 µM, key = CC(=O)Oc1c(C2=NN(C(C)=O)C(c3ccccc3[N+](=O)[O-])O2)sc2nnc(-c3ccccc3)c(-c3ccccc3)c12 (stereo not given)
### Response 102

* * *

- System: ACHN
- assay procedure: Cytotoxicity against Homo sapiens (human) ACHN assessed as cell growth at 10 uM after 48 hr by SRB assay relative to control
- Type: functional
- experimental context: read-out: Activity
readout label: growth at 10 µM (%)
I only need the number, in %, no unit after it.

### Prompt Please look at this molecule and report its growth at 10 µM: Oc1c(-c2nnc(-c3ccccc3)o2)sc2nnc(-c3ccccc3)c(-c3ccccc3)c12
### Response 67

### Prompt Please look at this molecule and report its growth at 10 µM: CC1=NN(C(=O)c2sc3nnc(-c4ccccc4)c(-c4ccccc4)c3c2O)C(=O)C1
### Response 73.2

### Prompt Please look at this molecule and report its growth at 10 µM: CCOC(=O)c1c(Nc2ccc(S(=O)(=O)Nc3nccs3)cc2)nnc(-c2ccccc2)c1-c1ccccc1
### Response 102

### Prompt Please look at this molecule and report its growth at 10 µM: CNc1nnc(-c2sc3nnc(-c4ccccc4)c(-c4ccccc4)c3c2O)s1
### Response 107

### Prompt Please look at this molecule and report its growth at 10 µM: Oc1c(-c2nnc(-c3ccc(Cl)cc3)o2)sc2nnc(-c3ccccc3)c(-c3ccccc3)c12
### Response 54

### Prompt Please look at this molecule and report its growth at 10 µM: CSc1nnc(-c2sc3nnc(-c4ccccc4)c(-c4ccccc4)c3c2O)o1
### Response 83.6

### Prompt Please look at this molecule and report its growth at 10 µM: CCOC(=O)c1c(Nc2ccc(S(N)(=O)=O)cc2)nnc(-c2ccccc2)c1-c1ccccc1
### Response 97.6

### Prompt Please look at this molecule and report its growth at 10 µM: Oc1c(-c2n[nH]c(=S)o2)sc2nnc(-c3ccccc3)c(-c3ccccc3)c12
### Response 92.4

### Prompt Please look at this molecule and report its growth at 10 µM: Oc1c(-c2nnc(SCc3ccccc3)o2)sc2nnc(-c3ccccc3)c(-c3ccccc3)c12
### Response 104

### Prompt Please look at this molecule and report its growth at 10 µM: CC(=O)Oc1c(C2=NN(C(C)=O)C(c3ccc(F)cc3)O2)sc2nnc(-c3ccccc3)c(-c3ccccc3)c12 (stereo unspecified)
### Response 72

### Prompt Please look at this molecule and report its growth at 10 µM: CC(=O)Oc1c(C2=NN(C(C)=O)C(c3ccccc3[N+](=O)[O-])O2)sc2nnc(-c3ccccc3)c(-c3ccccc3)c12 (stereo unspecified)
### Response 86.8

* * *

Exercise: for every item that follows, state its recorded growth at 10 µM.
- System: SF-268
- assay procedure: Cytotoxicity against Homo sapiens (human) SF268 assessed as cell growth at 10 uM after 48 hr by SRB assay relative to control
- Type: functional
- experimental context: SF-268, 48 h, read-out: Activity
I only need the number, in %, no unit after it.

### Prompt Please look at this compound and report its growth at 10 µM: Oc1c(-c2nnc(SCc3ccccc3)o2)sc2nnc(-c3ccccc3)c(-c3ccccc3)c12
### Response 103

### Prompt Please look at this compound and report its growth at 10 µM: Oc1c(-c2n[nH]c(=S)o2)sc2nnc(-c3ccccc3)c(-c3ccccc3)c12
### Response 102

### Prompt Please look at this compound and report its growth at 10 µM: Oc1c(-c2nnc(-c3ccc(Cl)cc3)o2)sc2nnc(-c3ccccc3)c(-c3ccccc3)c12
### Response 55.2

### Prompt Please look at this compound and report its growth at 10 µM: CC(=O)Oc1c(C2=NN(C(C)=O)C(c3ccccc3[N+](=O)[O-])O2)sc2nnc(-c3ccccc3)c(-c3ccccc3)c12 (stereo unspecified)
### Response 85.6

### Prompt Please look at this compound and report its growth at 10 µM: CC(=O)Oc1c(C2=NN(C(C)=O)C(c3ccc(F)cc3)O2)sc2nnc(-c3ccccc3)c(-c3ccccc3)c12 (stereo unspecified)
### Response 89.6

### Prompt Please look at this compound and report its growth at 10 µM: CCOC(=O)c1c(Nc2ccc(S(N)(=O)=O)cc2)nnc(-c2ccccc2)c1-c1ccccc1
### Response 105

### Prompt Please look at this compound and report its growth at 10 µM: CSc1nnc(-c2sc3nnc(-c4ccccc4)c(-c4ccccc4)c3c2O)o1
### Response 80.6

### Prompt Please look at this compound and report its growth at 10 µM: Oc1c(-c2nnc(-c3ccccc3)o2)sc2nnc(-c3ccccc3)c(-c3ccccc3)c12
### Response 85.5

### Prompt Please look at this compound and report its growth at 10 µM: CC1=NN(C(=O)c2sc3nnc(-c4ccccc4)c(-c4ccccc4)c3c2O)C(=O)C1
### Response 88.3

### Prompt Please look at this compound and report its growth at 10 µM: CCOC(=O)c1c(Nc2ccc(S(=O)(=O)Nc3nccs3)cc2)nnc(-c2ccccc2)c1-c1ccccc1
### Response 112

### Prompt Please look at this compound and report its growth at 10 µM: CNc1nnc(-c2sc3nnc(-c4ccccc4)c(-c4ccccc4)c3c2O)s1
### Response 106

* * *

- Tested on: HCC 2998
- assay procedure: Cytotoxicity against Homo sapiens (human) HCC2998 assessed as cell growth at 10 uM after 48 hr by SRB assay relative to control
- Assay type: functional
- experimental context: HCC 2998, 48 h, read-out: Activity
readout label: growth at 10 µM (%)
I only need the number, in %, no unit after it.

### Prompt Please look at this compound and report its growth at 10 µM: Oc1c(-c2nnc(-c3ccccc3)o2)sc2nnc(-c3ccccc3)c(-c3ccccc3)c12
### Response 70.4

### Prompt Please look at this compound and report its growth at 10 µM: CC1=NN(C(=O)c2sc3nnc(-c4ccccc4)c(-c4ccccc4)c3c2O)C(=O)C1
### Response 59.7

### Prompt Please look at this compound and report its growth at 10 µM: Oc1c(-c2nnc(SCc3ccccc3)o2)sc2nnc(-c3ccccc3)c(-c3ccccc3)c12
### Response 96.5

### Prompt Please look at this compound and report its growth at 10 µM: CC(=O)Oc1c(C2=NN(C(C)=O)C(c3ccccc3[N+](=O)[O-])O2)sc2nnc(-c3ccccc3)c(-c3ccccc3)c12 (stereo not drawn)
### Response 120

### Prompt Please look at this compound and report its growth at 10 µM: CC(=O)Oc1c(C2=NN(C(C)=O)C(c3ccc(F)cc3)O2)sc2nnc(-c3ccccc3)c(-c3ccccc3)c12 (stereo not drawn)
### Response 82.8

### Prompt Please look at this compound and report its growth at 10 µM: Oc1c(-c2nnc(-c3ccc(Cl)cc3)o2)sc2nnc(-c3ccccc3)c(-c3ccccc3)c12
### Response 54.7

### Prompt Please look at this compound and report its growth at 10 µM: CNc1nnc(-c2sc3nnc(-c4ccccc4)c(-c4ccccc4)c3c2O)s1
### Response 98.4

### Prompt Please look at this compound and report its growth at 10 µM: CCOC(=O)c1c(Nc2ccc(S(N)(=O)=O)cc2)nnc(-c2ccccc2)c1-c1ccccc1
### Response 96.8

* * *

Exercise: for every item that follows, state its recorded growth at 10 µM.
- Tested on: 786-0
- assay procedure: Cytotoxicity against Homo sapiens (human) 786-0 assessed as cell growth at 10 uM after 48 hr by SRB assay relative to control
- Assay type: functional
- experimental context: 786-0, 48 h, read-out: Activity
I only need the number, in %, no unit after it.

### Prompt Please look at this compound and report its growth at 10 µM: CNc1nnc(-c2sc3nnc(-c4ccccc4)c(-c4ccccc4)c3c2O)s1
### Response 108

### Prompt Please look at this compound and report its growth at 10 µM: CCOC(=O)c1c(Nc2ccc(S(=O)(=O)Nc3nccs3)cc2)nnc(-c2ccccc2)c1-c1ccccc1
### Response 109

### Prompt Please look at this compound and report its growth at 10 µM: Oc1c(-c2nnc(-c3ccc(Cl)cc3)o2)sc2nnc(-c3ccccc3)c(-c3ccccc3)c12
### Response 61.1

### Prompt Please look at this compound and report its growth at 10 µM: CC1=NN(C(=O)c2sc3nnc(-c4ccccc4)c(-c4ccccc4)c3c2O)C(=O)C1
### Response 65.9

### Prompt Please look at this compound and report its growth at 10 µM: Oc1c(-c2nnc(-c3ccccc3)o2)sc2nnc(-c3ccccc3)c(-c3ccccc3)c12
### Response 79.9

Cited source for all entries: ChEMBL document CHEMBL3045770
